# Tested on: Escherichia coli TOP10;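 note: peptides expressed intracellularly from a pBAD plasmid library in pooled LB shake-flask culture, induced with 0.3% L-arabinose, DNA abundance read by NGS, three biological replicates, DESeq2 with apeglm shrinkage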
# procedure_details: shrunken log2 fold change of peptide-encoding DNA abundance (4.5 h post-induction vs induction); higher = less antimicrobial activity (less host growth inhibition)
# applied_conditions: time post-induction: 4.5 h; library: site-saturation at positions 5, 18, 19, 20
Classify as follows. Reported shrunken log2 fold change greater than or equal to 0.2: label 1. Reported shrunken log2 fold change below: label 0.

{"seq": "RRIRGRPPRLPRPRPRPWLRPRP", "assay_target": "Escherichia coli TOP10", "class": "label 1"}
{"seq": "RRIRLRPPRLPRPRPRPAIAPRP", "assay_target": "Escherichia coli TOP10", "class": "label 0"}
{"seq": "RRIRRRPPRLPRPRPRPDTPPRP", "assay_target": "Escherichia coli TOP10", "class": "label 1"}
{"seq": "RRIRKRPPRLPRPRPRPMWIPRP", "assay_target": "Escherichia coli TOP10", "class": "label 0"}
{"seq": "RRIRGRPPRLPRPRPRPRISPRP", "assay_target": "Escherichia coli TOP10", "class": "label 1"}
{"seq": "RRIRCRPPRLPRPRPRPCHMPRP", "assay_target": "Escherichia coli TOP10", "class": "label 0"}
{"seq": "RRIRRRPPRLPRPRPRPEHLPRP", "assay_target": "Escherichia coli TOP10", "class": "label 1"}
{"seq": "RRIRERPPRLPRPRPRPLLFPRP", "assay_target": "Escherichia coli TOP10", "class": "label 0"}
{"seq": "RRIRSRPPRLPRPRPRPACEPRP", "assay_target": "Escherichia coli TOP10", "class": "label 1"}
{"seq": "RRIRGRPPRLPRPRPRPEVQPRP", "assay_target": "Escherichia coli TOP10", "class": "label 1"}
{"seq": "RRIRRRPPRLPRPRPRPYIWPRP", "assay_target": "Escherichia coli TOP10", "class": "label 0"}
{"seq": "RRIRPRPPRLPRPRPRPEVKPRP", "assay_target": "Escherichia coli TOP10", "class": "label 0"}

These measurements were taken from the supplement of paper PMC9112550.
